Source: patent US20140186344A1

Biological target: T1, Dahl S Dear S44/M74 variant (rat Dual Endothelin-1/Angiotensin II Receptor) (rat (Dahl S/JRHsd), UniProt D3ZGZ6 1-127)
T1 construct: It was assayed as membranes of transiently transfected Cos1 cells, and as rat kidney membranes on blots; also called Dahl S receptor; Cos1-S
T1 chain: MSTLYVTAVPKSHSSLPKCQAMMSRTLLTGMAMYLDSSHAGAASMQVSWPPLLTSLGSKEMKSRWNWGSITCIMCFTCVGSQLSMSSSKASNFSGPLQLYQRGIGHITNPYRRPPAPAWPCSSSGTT
Experiment: saturation radioligand binding, Cos1 membranes; KH, high affinity binding site; the column head says nM but paragraph 132 gives this value in pM
No end group written: not given here. *: point of attachment. 125I = [125I]*
test-readout: Kd (pM)
Provide only the numeric value, understood in pM.

Any idea what Kd was measured for CSCSSLMDKECVY(125I)FCHLDIIW (peptide, UniProt P05305 53-73, looked up, ends and bridges not checked, mature; Radiolabelled ligand; also called ET-1) [[125I]Tyr13-endothelin-1] ?
4.42
